QUANTITY KIND: melting point

[[record]]
compound = "O=C1CCc2cc(OCC(F)(F)C(F)(F)F)ccc21"
quantity_kind = "melting point"
recorded_value = "52 to 54 °C"

[[record]]
compound = "CON=C1CN(c2nc3c(cc2F)c(=O)c(C(=O)O)cn3C2CC2)CC12CN(C(=O)OC(C)(C)C)C2"
quantity_kind = "melting point"
recorded_value = "278 to 279 °C"

[[record]]
compound = "CN(C)c1ccc(C=C2C(=O)NC(=S)NC2=O)cc1"
quantity_kind = "melting point"
recorded_value = "272 °C"

[[record]]
compound = "COC(=O)c1ccc(-c2nc(-c3ccc(C(F)(F)F)cc3)co2)cc1"
quantity_kind = "melting point"
recorded_value = "182 to 183 °C"

[[record]]
compound = "CC(C)n1nc(-c2nc(Oc3ccc(F)cc3)c(N)nc2-c2ccccc2)ccc1=O"
quantity_kind = "melting point"
recorded_value = "173 to 175 °C"


IN: // lookup melting point for CCSC(C)(C)C(=O)CC(=O)Nc1cc(NC(=O)C(CC)Oc2ccc(C(C)(C)CC)cc2C(C)(C)CC)ccc1OC (configuration not stated)
OUT: 65 to 67 °C

IN: What do you have for CCC1(C)NC(=O)C(C)(CC)N1 (configuration not stated) ?
OUT: 58 to 64 °C

IN: What do you have for `Cc1cc(-c2cc(C(F)(F)F)n3ncc(C(=O)Nc4cccc(S(=O)(=O)N5CCN(C)CC5)c4)c3n2)ccc1Cl` ?
OUT: 143 °C

IN: What do you have for `Cc1cccc(CC(=O)c2ccnc(-c3ccc(C(=O)N4CCOCC4)cc3)c2)n1` ?
OUT: 106 °C

IN: What do you have for `COC(=O)c1cc(-c2nc(COc3ccc(COc4nn(-c5ccccc5)cc4C=O)cc3OC)c(C)o2)ccc1C` ?
OUT: 195 to 196 °C

IN: What do you have for `COc1cccc2c1nc(C)n2C` ?
OUT: 122 to 124 °C

IN: What do you have for `CC(C)OC(=O)N[C@@H](C(=O)O)c1ccccc1` ?
OUT: 123 to 127 °C

###

QUANTITY KIND: melting point

# count of solved cases: 8
[[record]]
compound = "O=Cc1cn(Cc2cc(OCc3ccccc3)cc(OCc3ccccc3)c2)cc1-c1ccccc1"
quantity_kind = "melting point"
recorded_value = "117 to 118 °C"

[[record]]
compound = "Nc1nc2c(ncn2C2CC(O)C(CO)O2)c(=O)[nH]1 (centres undefined)"
quantity_kind = "melting point"
recorded_value = "> 300 °C"

[[record]]
compound = "COc1ccc(C(=O)Cc2c(Cl)cncc2Cl)cc1OC1CCCC1"
quantity_kind = "melting point"
recorded_value = "119 to 120 °C"

[[record]]
compound = "Cn1ncc(-c2nn(-c3cccc(C(F)(F)F)c3)ccc2=O)c1-c1ccccc1"
quantity_kind = "melting point"
recorded_value = "193 to 195 °C"

[[record]]
compound = "Cc1cn(C2CC(O)C(C(O)I)O2)c(=O)[nH]c1=O (centres undefined)"
quantity_kind = "melting point"
recorded_value = "172 to 175 °C"

[[record]]
compound = "CCN(CC)CC(=O)Nc1ccc(NC(=O)CN(CC)CC)c2c1C(=O)c1ccccc1C2=O"
quantity_kind = "melting point"
recorded_value = "85 to 86 °C"

[[record]]
compound = "CCCCc1ccc(-c2[nH]nc3c2C(=O)c2c(NC(C)=O)cccc2-3)cc1"
quantity_kind = "melting point"
recorded_value = "259 °C"

[[record]]
compound = "COc1ccc(Nc2nccc(-c3ccc(N4CCNCC4)nc3)n2)cn1"
quantity_kind = "melting point"
recorded_value = "160 to 165 °C"


IN: // lookup melting point for CCC(O)(c1ccc(F)cc1)c1ccc(OCCN2CCCCC2)cc1 (centres undefined)
OUT: 72 to 73 °C

IN: What do you have for NC1=NN(c2ccc(C(=O)C(F)(F)F)cc2)C(c2ccccc2)C1 (centres undefined) ?
OUT: 214 to 216 °C

IN: What do you have for `CCOC(=O)c1ccc(-c2cnc(-c3ccc(C(F)(F)F)cc3)o2)cc1` ?
OUT: 142 to 143 °C

IN: What do you have for `CCC(=O)NCC[C@@H]1CCc2ccc3c(c21)CCO3` ?
OUT: 113 to 115 °C

IN: What do you have for `O=c1c2ccccc2sc2cc(F)ccc12` ?
OUT: 168 °C

IN: What do you have for `CCCCN(CCCC)CCCNC(=O)c1ccc2oc3ccc(C(=O)NCCCN(CCCC)CCCC)cc3c(=O)c2c1` ?
OUT: 89 to 92 °C
